ASSAY_COMMENT: yeast display, Sf9 membrane polyspecificity reagent, FACS + sequencing; frameworks hold sequencing errors
OBSERVATION_TYPE: polyreactivity (PSR sort gate)

Known results for sequences:
QVQLVESGGCLVQAGGSLRLSCAASGSTFGYNAMGWYRQATGKERELVAAITWTGASTYYADSVKGRFTISRDNAKNTVYLKINSLKPEDTEVYYCNRVGYQSMNYWGQGTQVTVSS; low polyreactivity
QVQHVESGGGLVQAGGSHRLSCAASGRIFPWNTMGRYRQAPGKERELVAGITSGGSTNYADSVKGRFTISRDNAKNTVYLQMKSLKPEDTAVYYCNRDSVGYDYWGQGTQVTVSS; low polyreactivity
QVQLVESGGGLVQAGGSLRLSCAASGSIFRNNAMGWYRQAPGKERELVAVINSRGGTTYYADSVKGRFTISRDNAMNPVYLQMNSLIPEDTAVYYCAARIRTSDRRYYWGQGTQVTVSS; high polyreactivity
QVQLVESGGGLVQAGGSLRLSCASSGYTFTVNAMGWYRQAPGKERELVAAISGSGGSTYYADSVKGRFTISRDNAKNTVYLQMNSLKPEDTAVYYCAADYWYYYWPLDYWGQGTQVTVSS; high polyreactivity
QVQLVESGGGLVQAGGSLRLSCAASGRIFGNYYKVWFRQAPGKERDLVAAISGGGSTYYADSVKGRFTISRDNAKNTVYLQMNSLKPEDTGVYYCAARFLWSVFGRKGGYWGQGTQVTVSS; low polyreactivity

Switching to the query record.
For the sequence shown here, QVQLVESGGGLVHAGGSLRLSCAASGSTSVYYAMGWYRQTPGKERELVAAITWDDGSTSYADSVKGRFTISRDNAKNTVYLQMNSLNPEDTAVYYCAKDYEYLGAFNYWGQGTQVTVSS , give the reported polyreactivity (PSR sort gate).
low polyreactivity
